B1: TRIM55 (parent)
chain: YKSFSKEQQTMDNLEKQLICPICL

Variants of: B1
Assay: protein stability index of a GFP-peptide fusion (GPS, HEK-293T) (PSI 1-6); higher = more stable;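 note: lentivirally expressed fusions sorted by FACS into six bins by GFP to DsRed ratio, PSI derived from sequencing read proportions per bin multiplied by bin number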
Conditions: c terminus: a fixed tail appended
readout: protein stability index
When you answer, write just the number.

Please review the following examples before continuing.
[[record]]
variant_string = "Y1I"
measured_value = 1.99

[[record]]
variant_string = "Q8G"
measured_value = 2.83


Quote protein stability index reported for L24H please.
2.5

Please indicate protein stability index recorded for E7D
2.29

Give recorded protein stability index. E7M
2.37

Note down protein stability index recorded for E15V
1.27

Specify reported protein stability index for the variant shown: I22G
2.9

Provenance of the data: the supplement of paper PMC10567573
